B1: library; numbered along this chain (parent)
chain: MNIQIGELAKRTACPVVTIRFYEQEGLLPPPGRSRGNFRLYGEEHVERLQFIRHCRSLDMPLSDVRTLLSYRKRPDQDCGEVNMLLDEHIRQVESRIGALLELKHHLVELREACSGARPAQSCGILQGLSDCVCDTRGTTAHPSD

variants of: B1; assay: sfGFP reporter fluorescence (15 h) (µM FITC); higher = stronger transcriptional activation; conditions: library round: Round 0; ligand: 30 µM Zn
Exercise: for every item that follows, state its recorded sfGFP reporter fluorescence.
The reply should be a number, written without any unit.

Task: Entry under review: C114I . Reported sfGFP reporter fluorescence?
Result: 0.863

Task: I am curious: what sfGFP reporter fluorescence value has been reported for L58M ?
Result: 0.0748

Task: For the variant L58Y , what sfGFP reporter fluorescence is on record?
Result: 0.606

Task: Report sfGFP reporter fluorescence for I125G please.
Result: 0.0504

Task: So what does the record say about sfGFP reporter fluorescence for C14A ?
Result: 0.317

Task: Record request: sfGFP reporter fluorescence value, item L110K
Result: 0.0792

Task: Return reported sfGFP reporter fluorescence; argument: P61S
Result: 2.15

Task: Endpoint output: sfGFP reporter fluorescence of Y22E . Value?
Result: 0.0601

Task: Suppose we examine the variant G6P ; what sfGFP reporter fluorescence value has been reported?
Result: 0.0608
